system: XIP peptide (Xip251-270) binding; assay: small-molecule binders of XIP peptide, primary screen, biochemical, small-molecule microarray, fluorescence 635/667 nm, 0.1 µg/mL protein (AID 1182); conditions: fluorescent protein binding, 635 nm, higher = more signal, called active from +8 up or from −8 down
# if value of composite z-score reaches 0.3, tag Y; if it stays below, tag N

[Q] Answer whether composite z-score of Cc1ccc([C@@H]2CC=C(C(=O)O)[C@H](c3ccccc3)N2S(=O)(=O)c2ccc(C)cc2)cc1 is greater than or equal to 0.3.
[A] Y

[Q] Answer whether composite z-score of O=C(N1CCCCC1)[C@@]1(CCS(=O)(=O)c2ccccc2)N=C(c2ccc(OCCCO)cc2)O[C@H]1c1ccccc1 is greater than or equal to 0.3.
[A] N

[Q] Answer whether composite z-score of Cc1ccc(S[C@]2(C(=O)O)CC(=O)N(Cc3cc(C(F)(F)F)cc(C(F)(F)F)c3)[C@@H]2c2ccc(CO)cc2I)cc1 is greater than or equal to 0.3.
[A] N

[Q] Answer whether composite z-score of C=C(/C(=C/C[C@@H](OC(=O)c1ccncc1)c1ccc(CO)o1)c1cnc2ccccc2c1)C(C)C is greater than or equal to 0.3.
[A] Y

[Q] Answer whether composite z-score of C=C(C(=O)CC[C@H](OC(=O)c1ccccc1-c1ccccc1C(=O)O)c1ccc(CO)o1)C(C)C is greater than or equal to 0.3.
[A] N

[Q] Answer whether composite z-score of O=C/C=C/c1ccccc1Cl is greater than or equal to 0.3.
[A] N

[Q] Answer whether composite z-score of CN(C)CCCC[C@@H]1NC(=O)[C@@H]2C[C@H](C(=O)NCCCCCNC(=O)CS)[C@H](c3ccc(O)cc3)N2C1=O is greater than or equal to 0.3.
[A] N

[Q] Answer whether composite z-score of COc1ccc([Si](C)(C)[C@@H]2[C@@H](CCO)O[C@]3(C(=O)N(Cc4ccc(NC(=O)[C@H](C)O)cc4)c4ccccc43)[C@H]2C)cc1 is greater than or equal to 0.3.
[A] Y

[Q] Answer whether composite z-score of [N-]=[N+]=NCc1ccccc1C[C@]1(C(=O)N2CCCCC2)N=C(c2ccc(OCCCO)cc2)O[C@H]1c1ccccc1CN=[N+]=[N-] is greater than or equal to 0.3.
[A] Y

[Q] Answer whether composite z-score of COCCOC(=O)N1C(=O)[C@@]2(c3cc(C#CC4(O)CCCCCC4)ccc31)[C@H](C(=O)N1CCCCCCC1)[C@H]1C(=O)O[C@H](c3ccccc3)[C@H](c3ccccc3)N1[C@@H]2c1ccc(O)cc1 is greater than or equal to 0.3.
[A] Y

[Q] Answer whether composite z-score of O=C1O[C@@H](c2ccccc2)[C@@H](c2ccccc2)N2[C@@H](c3ccc(O)cc3)[C@]3(C(=O)Nc4ccccc43)[C@@H](C(=O)N3CCN(c4ncccn4)CC3)[C@H]12 is greater than or equal to 0.3.
[A] Y

[Q] Answer whether composite z-score of COC(=O)C[C@H]1O[C@]2(C(=O)N(C)c3ccccc32)[C@@H](C)[C@@H]1[Si](C)(C)c1ccc(OC)cc1 is greater than or equal to 0.3.
[A] N

[Q] Answer whether composite z-score of C=C(CCCC)C(=O)CC[C@@H](OC(C)=O)c1ccccc1OCCO is greater than or equal to 0.3.
[A] N

[Q] Answer whether composite z-score of C=CC[C@]1(C(=O)OC)N=C(c2ccc(OCCCO)cc2)O[C@H]1c1ccccc1CN=[N+]=[N-] is greater than or equal to 0.3.
[A] N

[Q] Answer whether composite z-score of CCN1C(C)=C(C(=O)OC)[C@@H](c2ccccc2)N2C(=O)[C@](O)(C(=O)OC)[C@@H](c3ccccc3)C(C(C)=O)=C12 is greater than or equal to 0.3.
[A] N

[Q] Answer whether composite z-score of COc1cc2c(cc1OC)CN(C(=O)[C@@H]1[C@H]3C(=O)O[C@H](c4ccccc4)[C@H](c4ccccc4)N3[C@H](c3ccccc3OCCO)[C@@]13C(=O)Nc1ccccc13)CC2 is greater than or equal to 0.3.
[A] Y

[Q] Answer whether composite z-score of COc1ccc([Si](C)(C)[C@@H]2[C@@H](CC(=O)N(CCO)Cc3ccccc3)O[C@]3(C(=O)N(Cc4cccc(N5CCC5=O)c4)c4ccccc43)[C@H]2C)cc1 is greater than or equal to 0.3.
[A] Y

[Q] Answer whether composite z-score of CCCC[C@H]1OB(O)C[C@H]2C1=C(COC)C[C@H]1C(=O)N(Cc3ccccc3)C(=O)[C@H]12 is greater than or equal to 0.3.
[A] N

[Q] Answer whether composite z-score of CCN1C(C)=C(C(=O)OC)[C@@H](c2ccccc2)N2C(=O)[C@@]3(C(=O)OC)O[C@@]12[C@@H]1C(=O)N(c2ccccc2)C(=O)[C@@H]13 is greater than or equal to 0.3.
[A] Y

[Q] Answer whether composite z-score of CCCN1C(=O)[C@@]2(CCS(=O)(=O)c3ccccc3)N=C(c3ccc(OCCCO)cc3)O[C@H]2c2ccccc21 is greater than or equal to 0.3.
[A] N

[Q] Answer whether composite z-score of C#C[C@H](O[Si](C#Cc1ccccc1)(C(C)C)C(C)C)c1ccccc1 is greater than or equal to 0.3.
[A] N

[Q] Answer whether composite z-score of C=CC[C@]1(C(=O)NCC(O)CO)N=C(c2ccc(OCCCO)cc2)O[C@H]1c1ccccc1 (some centres undefined) is greater than or equal to 0.3.
[A] Y

[Q] Answer whether composite z-score of CCCNC(=O)[C@@H]1c2ccccc2C(=O)N(C2CCCCC2)[C@H]1c1ccc(CO)cc1 is greater than or equal to 0.3.
[A] Y

[Q] Answer whether composite z-score of C=C(C)[C@@H]1CC=C(C(O)C2C=CC3C(=O)NC(=O)C3N2Nc2ccccn2)CC1 (some centres undefined) is greater than or equal to 0.3.
[A] Y

[Q] Answer whether composite z-score of CO[C@@H]1COC(=O)[C@H](C)NC(=O)CC=C[C@@H](C)[C@H](OC)COC(=O)[C@H](C)NC(=O)CC=C[C@H]1C is greater than or equal to 0.3.
[A] N

[Q] Answer whether composite z-score of COC(=O)[C@H]1[C@@H]2COc3ccccc3[C@H]2N[C@H]1C(=O)OC is greater than or equal to 0.3.
[A] N

[Q] Answer whether composite z-score of Cc1ccc(S[C@]2(C(=O)NC3CC3)CC(=O)N(Cc3cc(C(F)(F)F)cc(C(F)(F)F)c3)[C@@H]2c2ccc(CO)cc2)cc1 is greater than or equal to 0.3.
[A] Y

[Q] Answer whether composite z-score of COCCOC(=O)N1C(=O)[C@@]2(c3cc(C#CCNC(N)=O)ccc31)[C@H](c1ccc(OCCO)cc1)N1[C@H](c3ccccc3)[C@H](c3ccccc3)OC(=O)[C@H]1[C@@H]2C(=O)Nc1nc2ccccc2s1 is greater than or equal to 0.3.
[A] Y

[Q] Answer whether composite z-score of O=C1C2C=CC(C(O)C(c3ccccc3)c3ccccc3)N(Nc3ccc([N+](=O)[O-])cc3)C2C(=O)N1c1ccccc1 (centres undefined) is greater than or equal to 0.3.
[A] N

----------
biological target: Streptavidin (Streptomyces avidinii); experiment: streptavidin binders on small-molecule microarray, primary screen, artefact control for SMM compound annotation, biophysical, 635/667 nm fluorescence (AID 1147); conditions: streptavidin binding, higher = more signal;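 further: signal reflects streptavidin binding to arrayed compounds as a control protein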
Assign composite z-score to each entry below.

[Q] Identify measured composite z-score associated with CN(C)C(=O)[C@@]1(Cc2ccccc2N=[N+]=[N-])N=C(c2ccc(OCCCO)cc2)O[C@H]1c1ccccc1CN=[N+]=[N-]
[A] 1.41

[Q] Identify measured composite z-score associated with Cc1ccc(S[C@]2(C(=O)NCCCN(C)C)CC(=O)N(C3CCCCC3)[C@@H]2c2ccc(CO)cc2I)cc1
[A] -0.806

[Q] Identify measured composite z-score associated with COCCOC(=O)N1C(=O)[C@@]2(c3cc(C#CCCO)ccc31)[C@H](C(=O)N1CCCCCCC1)[C@H]1C(=O)O[C@H](c3ccccc3)[C@H](c3ccccc3)N1[C@@H]2c1ccc(O)cc1
[A] 1

[Q] Identify measured composite z-score associated with C=C(CCCC)/C(=C/C[C@@H](OC(=O)c1ccncc1)c1cccc(OCCO)c1)c1cc(C(=O)OC)ccc1OC
[A] 0.788

[Q] Identify measured composite z-score associated with COCCOC(=O)N1C(=O)[C@@]2(c3cc(C#CCCO)ccc31)[C@H](c1ccc(O)cc1)N1[C@H](c3ccccc3)[C@H](c3ccccc3)OC(=O)[C@H]1[C@@H]2C(=O)Nc1nc2ccccc2s1
[A] 0.996

[Q] Identify measured composite z-score associated with COCCOC(=O)N1C(=O)[C@@]2(c3cc(C#CCNC(N)=O)ccc31)[C@H](c1ccc(OCCO)cc1)N1[C@H](c3ccccc3)[C@H](c3ccccc3)OC(=O)[C@H]1[C@@H]2C(=O)Nc1nc2ccccc2s1
[A] 0.422

[Q] Identify measured composite z-score associated with Cc1ccc(N2C(=O)c3ccccc3[C@@H](C(=O)NCc3ccccc3)[C@@H]2c2ccc(CO)cc2)nc1
[A] -0.524

[Q] Identify measured composite z-score associated with Cc1ccc(S(=O)(=O)N[C@H]2COC(=O)CC=C[C@H](C)COC(=O)N[C@@H](C)C(=O)CC=C[C@@H]2C)cc1
[A] -0.184

[Q] Identify measured composite z-score associated with CCCNC(=O)[C@@H]1c2ccccc2C(=O)N(C2CCCCC2)[C@H]1c1ccc(CO)cc1
[A] 0.573

[Q] Identify measured composite z-score associated with COCCCNC(=O)[C@@H]1c2ccccc2C(=O)N(CC23CC4CC(CC(C4)C2)C3)[C@H]1c1ccc(CO)cc1
[A] -0.269

[Q] Identify measured composite z-score associated with O=C1C2C=CC(C(O)C(c3ccccc3)c3ccccc3)N(Nc3ccc([N+](=O)[O-])cc3)C2C(=O)N1c1ccccc1 (centres undefined)
[A] 1.13

[Q] Identify measured composite z-score associated with CCCNC(=O)[C@@H]1c2ccccc2C(=O)N(Cc2cc(F)cc(C(F)(F)F)c2)[C@H]1c1ccc(CO)cc1
[A] 0.568

[Q] Identify measured composite z-score associated with COC(=O)[C@@]1(Cc2ccccc2N=[N+]=[N-])N=C(c2ccc(OCCCO)cc2)O[C@H]1c1ccccc1CN=[N+]=[N-]
[A] -0.46

[Q] Identify measured composite z-score associated with COc1ccc(CCN2C(=O)[C@@]3(c4ccc([N+](=O)[O-])cc4)CC(=O)N(CC45CC6CC(CC(C6)C4)C5)[C@@H]3c3ccc(CO)cc32)cc1
[A] -0.168
